Measured values drawn from ChEMBL document CHEMBL1131422 for this set.

# ASSAY_SYSTEM: Peroxisome proliferator-activated receptor gamma (Homo sapiens, UniProt P37231)
# Sequence (P37231 whole entry): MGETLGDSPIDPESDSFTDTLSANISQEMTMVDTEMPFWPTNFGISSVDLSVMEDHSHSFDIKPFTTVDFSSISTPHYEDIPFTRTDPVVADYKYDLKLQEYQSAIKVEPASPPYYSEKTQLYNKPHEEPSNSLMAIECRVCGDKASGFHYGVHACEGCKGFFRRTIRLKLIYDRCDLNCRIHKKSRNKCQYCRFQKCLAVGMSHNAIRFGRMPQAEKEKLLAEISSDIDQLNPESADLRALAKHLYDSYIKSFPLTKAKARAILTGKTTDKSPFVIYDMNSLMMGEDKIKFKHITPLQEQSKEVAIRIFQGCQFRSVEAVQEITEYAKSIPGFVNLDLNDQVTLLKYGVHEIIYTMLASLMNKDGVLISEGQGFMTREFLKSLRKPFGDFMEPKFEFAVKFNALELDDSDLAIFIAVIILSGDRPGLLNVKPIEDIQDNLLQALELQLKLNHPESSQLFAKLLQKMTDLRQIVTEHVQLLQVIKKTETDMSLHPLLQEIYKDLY
The following compounds are shown together with reported Ki values.
# unit: nM | format: bare number

In the examples that follow, each entry is paired with its recorded Ki.
>>> df
                                   compound  assay_readout  result_units  numeric_value
0  CN(CCOc1ccc(CC(Nc2cccc3c2C(=O)c2ccccc2-3)C(=O)O)cc1)c1nc2ccccc2o1 (centres undefined)             Ki            nM           85.1
1  CN(CCOc1ccc(CC(Nc2ccccc2S(=O)(=O)c2ccccc2)C(=O)O)cc1)c1nc2ccccc2o1 (centres undefined)             Ki            nM            123
2  CN(CCOc1ccc(CC(Nc2ccccc2/C(=N/N)c2ccccc2)C(=O)O)cc1)c1ccccn1 (centres undefined)             Ki            nM            162

Now examine the next entry.
Give its Ki value. Item: O=C(c1ccccc1)c1ccccc1N[C@@H](Cc1ccc(OCc2ccccc2)cc1)C(=O)O
162
